Target: IL16_1, Q14005
Sequence (Q14005 210-306): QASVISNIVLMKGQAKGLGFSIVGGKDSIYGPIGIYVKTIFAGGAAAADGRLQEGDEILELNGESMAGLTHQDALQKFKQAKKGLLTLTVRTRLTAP
Assay: holdup assay
Set-up: key: below the threshold = too weak to quantify, mostly under pKd 3.1 to 4
Settings: plain residues with an end cap or a label only (N-terminal biotin on a linker: ado-ado)
parameter measured: pKd

Some solved cases for reference:
| binder | pKd |
| --- | --- |
| VCMGDHWFDV [PRKN, O60260] | below the threshold |
| PLATCDETSI [SEMA4F, O95754] | below the threshold |
| RGKNRRQSIF [CDK18, Q07002] | below the threshold |
| DAAHHDESNC [FMNL3, Q8IVF7] | below the threshold |
| LVEEEEPMNL [HDAC7, Q8WUI4] | below the threshold |

(Q) Supply recorded pKd for IGHEDLETAV [DGKI, O75912] here.
(A) 4.26

(Q) Supply recorded pKd for EAVTVESTSL [SLC22A11, Q9NSA0] here.
(A) below the threshold

(Q) Supply recorded pKd for QLKSGRDSTV [TMEM178A, Q8NBL3] here.
(A) below the threshold

(Q) Supply recorded pKd for THREVKFTSL [CD46, P15529] here.
(A) below the threshold

(Q) Supply recorded pKd for TKEIPNCTSV [SORCS3, Q9UPU3] here.
(A) below the threshold
